Tested on: OVCAR-4 ovarian
measurement_protocol: NCI-60 one-dose screen, 48 h (100 = growth as untreated, 0 = no growth, -100 = all killed)
measurement_conditions: 10 µM unless noted
This is part of a sample that, as a whole, favours compounds with a hit. Of some 83,000 tested, about 20% had one in any assay. Active and inactive are the calls of the source. Rule for the calls: active = growth percent below 10; inactive = the rest.
Entries annotated with measured growth

CC(C)c1ccc(NC(=O)Cc2ccc(Nc3ncnc4cc(-c5cnn(CCN(C)C)c5)ccc34)cc2)cc1 ... -83.1% [30 µM] (active)
O=C1NC(=S)S/C1=C\N1N=C(c2ccc(Cl)cc2)CC1c1ccc(F)cc1 (stereo not drawn) ... 91.4% (inactive)
COc1ccccc1C(=O)NC(=S)Nc1ccc(-c2nc3ccccc3[nH]2)cc1 ... -60.7% (active)

growth in this record for C=CC(=O)Nc1cccc(C)c1Nc1cc(-c2cccnc2Cc2c(C)c(OC)cc(OC)c2C)ncn1 : 41.9% (inactive)

growth in this record for Cn1c(NCCc2ccc(O)c(O)c2)nc2c1c(=O)n(Cc1ccc(Cl)cc1)c(=O)n2C : 59.8% (inactive)

Sourced from PubChem BioAssay (NCI)
